target: PRMT5 (Homo sapiens); construct: purchased Viva (custom protein); assay: PRMT5 IC50 assay with no cofactor; format: biochemical
QUANTITY_NAME: IC50

O=C(NC[C@H](O)CN1CCc2cc(OCc3cnco3)ccc2C1)c1cc(NC2CCOCC2)ccn1 : ≥ 5 µM
Cc1c(OCc2cnco2)ccc2c1CCN(C[C@@H](O)CNC(=O)c1ccnc(N[C@H]3C[C@H](O)C3)c1)C2 : ≥ 5 µM
Cc1c(OCc2cnco2)ccc2c1CCN(C[C@@H](O)CNC(=O)c1cc(NC3CN(C(=O)CC(C)C)C3)ncn1)C2 : ≥ 5 µM

QUERY: Give its IC50 value. Item: `CCN(C)c1nc(NC2COC2)cc(C(=O)NC[C@H](O)CN2CCc3cc(OCc4ocnc4C)ccc3C2)n1`
RESULT: 0.5 to 5 µM

QUERY: Give its IC50 value. Item: `Cc1ncoc1COc1ccc2c(c1)CCN(C[C@@H](O)CNC(=O)c1cc(Nc3cccnc3)nc(N3CCCCC3)c1)C2`
RESULT: 0.5 to 5 µM

QUERY: Give its IC50 value. Item: CC(=O)N1CCC(Nc2cccc(C(=O)NC[C@H](O)CN3CCc4cc(OCc5cnco5)ccc4C3)c2)C1 (stereo partly drawn)
RESULT: ≥ 5 µM

QUERY: Give its IC50 value. Item: `CCC(=O)N1CC(Nc2cc(C(=O)NC[C@H](O)CN3CCc4c(ccc(OCc5cnco5)c4Cl)C3)ccn2)C1`
RESULT: 0.5 to 5 µM

QUERY: Give its IC50 value. Item: `CO[C@H]1C[C@@H](Nc2cc(C(=O)NC[C@H](O)CN3CCc4c(ccc(OCc5cnco5)c4C)C3)ccn2)C1`
RESULT: ≥ 5 µM

---

# reported pIC50; entries follow
target: PRMT5 (Homo sapiens, UniProt O14744); construct: purchased Viva (custom protein); assay: PRMT5 IC50 assay in the presence of MTA as cofactor; type: biochemical; details: PRMT5, MTA as cofactor
Sequence (O14744 whole entry): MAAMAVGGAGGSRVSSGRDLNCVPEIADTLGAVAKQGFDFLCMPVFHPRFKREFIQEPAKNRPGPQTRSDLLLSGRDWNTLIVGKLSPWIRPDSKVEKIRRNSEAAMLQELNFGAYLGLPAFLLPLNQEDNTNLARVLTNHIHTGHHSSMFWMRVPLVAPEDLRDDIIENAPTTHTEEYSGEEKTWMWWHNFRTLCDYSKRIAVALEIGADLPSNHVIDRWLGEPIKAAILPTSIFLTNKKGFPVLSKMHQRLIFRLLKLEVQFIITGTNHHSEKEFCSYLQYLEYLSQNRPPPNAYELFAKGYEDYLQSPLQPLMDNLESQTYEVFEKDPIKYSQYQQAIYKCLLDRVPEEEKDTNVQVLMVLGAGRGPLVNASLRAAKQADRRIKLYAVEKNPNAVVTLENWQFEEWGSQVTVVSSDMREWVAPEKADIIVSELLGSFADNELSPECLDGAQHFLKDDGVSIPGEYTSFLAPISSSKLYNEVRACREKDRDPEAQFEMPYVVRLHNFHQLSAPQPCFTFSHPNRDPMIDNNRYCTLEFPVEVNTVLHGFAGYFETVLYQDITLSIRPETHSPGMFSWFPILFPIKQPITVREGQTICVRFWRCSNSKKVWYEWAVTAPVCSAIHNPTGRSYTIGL
Sequence (Q9BQA1 whole entry partner): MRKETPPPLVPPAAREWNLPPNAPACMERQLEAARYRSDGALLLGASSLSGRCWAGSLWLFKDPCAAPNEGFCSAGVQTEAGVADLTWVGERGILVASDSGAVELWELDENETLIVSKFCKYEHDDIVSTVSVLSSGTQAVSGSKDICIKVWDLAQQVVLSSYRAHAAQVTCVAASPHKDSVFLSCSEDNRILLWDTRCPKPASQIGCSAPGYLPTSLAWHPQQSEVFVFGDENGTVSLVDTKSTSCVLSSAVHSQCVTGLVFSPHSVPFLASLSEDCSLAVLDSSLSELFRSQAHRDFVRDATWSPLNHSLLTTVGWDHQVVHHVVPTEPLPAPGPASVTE
pIC50: −log10 of the molar value.

The examples below pair each entry with its known result.
CCCN(C)c1nc(NC2COC2)cc(C(=O)NC[C@H](O)CN2CCc3c(ccc(OCc4ocnc4C)c3C)C2)n1 : 6.30 to 7.30
O=C1N[C@H]2[C@H](CS[C@H]2CCCCC(=O)N2CCC(Nc3cc(C(=O)NC[C@H](O)CN4CCc5cc(OCc6cnco6)ccc5C4)ncn3)CC2)N1 : > 7.30
O=C(NC[C@H](O)CN1CCc2c(ccc(OCc3cnco3)c2Cl)C1)c1cc(NC2CCC2)nc(N2CCCCC2)c1 : 5.30 to 6.30
CO[C@H]1C[C@@H](Nc2cc(C(=O)NC[C@H](O)CN3CCc4c(ccc(OCc5cnco5)c4C)C3)ccn2)C1 : 6.30 to 7.30
CCCC(=O)N1CCC(Nc2cc(C(=O)NC[C@H](O)CN3CCc4cc(OCc5cnco5)ccc4C3)ccn2)CC1 : 6.30 to 7.30
CC(=O)N1CCC(Nc2cc(C(=O)NC[C@H](O)CN3CCc4c(C)c(OCc5ocnc5C)cc(F)c4C3)ccn2)CC1 : 6.30 to 7.30
Cc1c(OCc2cnco2)ccc2c1CCN(C[C@@H](O)CNC(=O)c1ccnc(NC3CCCC3)c1)C2 : 6.30 to 7.30
O=C(NC[C@H](O)CN1CCc2c(ccc(OCc3cnco3)c2Br)C1)c1cccc(NC2CCC2)c1 : 5.30 to 6.30
Cc1c(OCc2cnco2)ccc2c1CCN(C[C@@H](O)CNC(=O)c1ccnc(NC3CCN(C(=O)C4CCC4)CC3)c1)C2 : 6.30 to 7.30
Cc1ncoc1COc1ccc2c(c1C)CCN(C[C@@H](O)CNC(=O)c1cc(NC3CCC3)ncn1)C2 : 6.30 to 7.30

QUERY: Param readout= pIC50; system= PRMT5 (Homo sapiens, UniProt O14744); entry= `Cc1ncoc1COc1ccc2c(c1C)CCN(C[C@@H](O)CNC(=O)c1cc(NC3CCCCC3)ncn1)C2` ; returns value.
RESULT: 6.30 to 7.30

QUERY: Param readout= pIC50; system= PRMT5 (Homo sapiens, UniProt O14744); entry= `CC(=O)N1CC(Nc2cc(C(=O)NC[C@H](O)CN3CCc4c(ccc(OCc5ocnc5C)c4C)C3)nc(C(C)(C)C)n2)C1` ; returns value.
RESULT: 6.30 to 7.30

QUERY: Param readout= pIC50; system= PRMT5 (Homo sapiens, UniProt O14744); entry= `CN(C)CCOc1cc(C(=O)NC[C@H](O)CN2CCc3cc(OCc4cnco4)ccc3C2)cc(NC2CCC2)n1` ; returns value.
RESULT: > 7.30

QUERY: Param readout= pIC50; system= PRMT5 (Homo sapiens, UniProt O14744); entry= `CCCN(C)c1nc(NC2COC2)cc(C(=O)NC[C@H](O)CN2CCc3cc(OCc4ocnc4C)ccc3C2)n1` ; returns value.
RESULT: 6.30 to 7.30

---

biological target: PRMT5 (Homo sapiens, UniProt O14744); construct: purchased Viva (custom protein); assay: PRMT5 IC50 assay with no cofactor; type: biochemical; conditions: read-out: No Co-factor IC50
pIC50: −log10 of the molar value.
QUANTITY_NAME: pIC50

QUERY: Give its pIC50 value. Item: `CC(=O)N1CC(Nc2cc(C(=O)NC[C@H](O)CN3CCc4c(ccc(OCc5cnco5)c4Cl)C3)nc(N3CCOCC3)n2)C1`
RESULT: 5.30 to 6.30

QUERY: Give its pIC50 value. Item: `CC(=O)N1CCC(Nc2cc(C(=O)NC[C@H](O)CN3CCc4c(ccc(OCc5ocnc5C)c4Cl)C3)ncn2)CC1`
RESULT: ≤ 5.30

QUERY: Give its pIC50 value. Item: `CC(=O)N1CCC(Nc2cc(C(=O)NC[C@H](O)CN3CCc4cc(OCc5ocnc5C)c(F)cc4C3)ccn2)CC1`
RESULT: 5.30 to 6.30

QUERY: Give its pIC50 value. Item: `CC(C)(C)N1CCN(c2cc(C(=O)NC[C@H](O)CN3CCc4cc(OCc5cnco5)ccc4C3)cc(NC3CCC3)n2)CC1`
RESULT: 5.30 to 6.30

QUERY: Give its pIC50 value. Item: `O=C(NC[C@H](O)CN1CCc2c(ccc(OCc3cnco3)c2Br)C1)c1ccnc(NC2CCCC2)c1`
RESULT: ≤ 5.30

QUERY: Give its pIC50 value. Item: `Cc1ncoc1COc1ccc2c(c1Br)CCN(C[C@@H](O)CNC(=O)c1cccc(NC3CCC3)c1)C2`
RESULT: ≤ 5.30

QUERY: Give its pIC50 value. Item: `CC(=O)N1[C@@H]2CC[C@H]1C[C@@H](Nc1cc(C(=O)NC[C@H](O)CN3CCc4cc(OCc5ocnc5C)ccc4C3)ncn1)C2`
RESULT: ≤ 5.30

QUERY: Give its pIC50 value. Item: CC(=O)N1CC(Nc2cc(C(=O)NCC(O)CN3CCc4nc(OCc5ocnc5C)ccc4C3)nc(N3CCCCC3)n2)C1 (stereo not drawn)
RESULT: 5.30 to 6.30

QUERY: Give its pIC50 value. Item: `CC(=O)N1CC(Nc2cc(C(=O)NC[C@H](O)CN3CCc4cc(OCc5ocnc5C)ccc4C3)cc(N3CCCCC3)n2)C1`
RESULT: 6.30 to 7.30

---

test system: HAP1 MTAP-intact; assay: SDMA in-cell western assay, HAP1 MTAP-intact cell line; type: cell-based; details: Homo sapiens
QUANTITY_NAME: IC50

The examples below pair each entry with its known result.
O=C(NC[C@H](O)CN1CCc2cc(OCc3cnco3)ccc2C1)c1cc(NC2CCC2)nc(N2CCOCC2)c1 : ≥ 10 µM
CC(=O)N1CC(Nc2cc(C(=O)NC[C@H](O)CN3CCc4cc(OCc5cnco5)ccc4C3)nc(C(C)(C)C)n2)C1 : < 1 µM
O=C(NC[C@H](O)CN1CCc2c(ccc(OCc3cnco3)c2Cl)C1)c1cc(NC2CCC2)nc(N2CCNCC2)c1 : ≥ 10 µM
Cc1ncoc1COc1ccc2c(c1)CCN(C[C@@H](O)CNC(=O)c1cc(NC3CCC3)nc(N(C)C3CCC3)c1)C2 : 1 to 10 µM
CC(C)(C)C(=O)N1CCC(Nc2cc(C(=O)NC[C@H](O)CN3CCc4c(ccc(OCc5cnco5)c4Cl)C3)ccn2)CC1 : ≥ 10 µM

QUERY: Give its IC50 value. Item: `Cc1c(OCc2cnco2)ccc2c1CCN(C[C@@H](O)CNC(=O)c1ccnc(NC3CCN(C(=O)C4CC4)CC3)c1)C2`
RESULT: ≥ 10 µM

QUERY: Give its IC50 value. Item: `O=C(NC[C@H](O)CN1CCc2cc(OCc3cn[nH]c3)ccc2C1)c1ccnc(NC2CCC2)c1`
RESULT: < 1 µM

QUERY: Give its IC50 value. Item: `Cc1ncoc1COc1ccc2c(c1)CCN(C[C@@H](O)CNC(=O)c1cc(CC(C)C)nc(NC3CCC3)c1)C2`
RESULT: 1 to 10 µM

QUERY: Give its IC50 value. Item: `CC(=O)N1CCC(Nc2cc(C(=O)NC[C@H](O)CN3CCc4c(ccc(OCc5conc5C)c4Cl)C3)ncn2)CC1`
RESULT: ≥ 10 µM

QUERY: Give its IC50 value. Item: Cc1c(OCc2cnco2)ccc2c1CCN(C[C@@H](O)CNC(=O)c1ccnc(NC3CCC3C3CCC3)c1)C2 (some centres unmarked)
RESULT: ≥ 10 µM

QUERY: Give its IC50 value. Item: `O=C(NC[C@H](O)CN1CCc2c(ccc(OCc3cnco3)c2Cl)C1)c1ccc(OC2CCN(Cc3ccccc3)CC2)cc1`
RESULT: ≥ 10 µM

QUERY: Give its IC50 value. Item: `CC(=O)N1CCC(Nc2cc(C(=O)NC[C@H](O)CN3CCc4cc(OCc5cnco5)ccc4C3)ncn2)CC1`
RESULT: 1 to 10 µM

QUERY: Give its IC50 value. Item: `CN1CCN(c2cc(C(=O)NC[C@H](O)CN3CCc4cc(OCc5cnco5)ccc4C3)cc(NC3CCC3)n2)CC1`
RESULT: < 1 µM

QUERY: Give its IC50 value. Item: CC(=O)N1CCC(Nc2cc(C(=O)NC[C@H](O)CN3CCc4cc(OCc5ocnc5C)ccc4C3)ccn2)C(C)C1 (some centres unmarked)
RESULT: 1 to 10 µM
